The measured values listed here are drawn from ChEMBL document CHEMBL3991601.

molecular target: Serine/threonine-protein kinase 10 (Homo sapiens); further: in the data inactive means no Kd found up to 30 µM
Sequence (O94804 whole entry): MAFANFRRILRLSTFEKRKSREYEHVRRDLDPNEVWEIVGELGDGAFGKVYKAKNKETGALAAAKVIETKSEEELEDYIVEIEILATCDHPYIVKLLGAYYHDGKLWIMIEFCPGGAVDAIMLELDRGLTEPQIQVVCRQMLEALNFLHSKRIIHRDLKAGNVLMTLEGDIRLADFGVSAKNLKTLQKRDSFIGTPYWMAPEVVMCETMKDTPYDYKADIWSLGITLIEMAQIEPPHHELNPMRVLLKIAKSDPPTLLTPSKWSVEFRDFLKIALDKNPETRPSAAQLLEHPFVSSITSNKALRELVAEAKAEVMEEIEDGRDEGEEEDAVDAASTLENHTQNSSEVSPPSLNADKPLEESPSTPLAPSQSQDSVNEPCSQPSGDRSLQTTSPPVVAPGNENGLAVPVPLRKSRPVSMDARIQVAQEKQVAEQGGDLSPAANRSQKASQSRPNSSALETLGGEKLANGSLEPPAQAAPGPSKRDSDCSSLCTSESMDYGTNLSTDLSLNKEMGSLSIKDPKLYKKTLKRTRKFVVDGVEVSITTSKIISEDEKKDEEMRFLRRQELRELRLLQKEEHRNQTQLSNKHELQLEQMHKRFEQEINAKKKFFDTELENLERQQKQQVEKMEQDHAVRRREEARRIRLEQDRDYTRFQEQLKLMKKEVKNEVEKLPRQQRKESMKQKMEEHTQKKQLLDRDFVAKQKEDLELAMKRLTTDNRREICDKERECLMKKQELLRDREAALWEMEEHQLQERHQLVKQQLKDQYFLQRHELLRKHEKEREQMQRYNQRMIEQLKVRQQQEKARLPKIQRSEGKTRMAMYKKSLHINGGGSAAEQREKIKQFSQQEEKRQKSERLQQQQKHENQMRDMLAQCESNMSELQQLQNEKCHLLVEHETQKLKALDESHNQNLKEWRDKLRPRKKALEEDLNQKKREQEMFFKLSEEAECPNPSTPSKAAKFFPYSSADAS
Calls of active or inactive are those of the source.
Just give me one of these, please: yes = active, no = inactive

Would you please look over these solved cases?
>>> df
                                   compound  category
0  Cc1cc(Nc2nc(N[C@@H](C)c3ncc(F)cn3)ncc2Cl)n[nH]1       yes
1  CN(c1ncccc1CNc1nc(Nc2ccc3c(c2)CC(=O)N3)ncc1C(F)(F)F)S(C)(=O)=O        no
2  COc1cc2ncnc3c2cc1OCCCCCN(C)Cc1ccc(Br)cc1N3       yes

# evaluate next
Please let me know the test result on file for COc1cc2ncnc(Nc3ccc(F)c(Cl)c3)c2cc1NC(=O)/C=C/CN1CCCCC1 [DACOMITINIB ANHYDROUS] .
no

----------
molecular target: Mitogen-activated protein kinase 9 (Homo sapiens); further: in the data inactive means no Kd found up to 30 µM
Sequence (P45984 whole entry): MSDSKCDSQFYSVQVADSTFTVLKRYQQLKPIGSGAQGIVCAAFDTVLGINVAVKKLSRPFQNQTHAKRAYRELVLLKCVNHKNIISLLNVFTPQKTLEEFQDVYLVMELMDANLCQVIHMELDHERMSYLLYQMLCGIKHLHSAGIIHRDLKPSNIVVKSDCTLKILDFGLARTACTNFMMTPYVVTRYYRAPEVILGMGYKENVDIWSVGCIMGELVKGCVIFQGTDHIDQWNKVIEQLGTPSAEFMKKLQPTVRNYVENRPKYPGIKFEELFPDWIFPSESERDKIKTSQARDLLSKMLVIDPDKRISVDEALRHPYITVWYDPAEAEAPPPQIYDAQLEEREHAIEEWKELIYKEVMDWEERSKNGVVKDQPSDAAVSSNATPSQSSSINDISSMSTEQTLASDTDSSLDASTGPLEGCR
Active and inactive are the calls of the source.
Just give me one of these, please: 1 (active), -1 (inactive)

>>> print(df.to_string())
                                   compound                             system_tested  category
0  CCOc1ccn(-c2ccc(F)cc2)c(=O)c1C(=O)Nc1ccc(Oc2ccnc(N)c2Cl)c(F)c1 [BMS-777607]  Mitogen-activated protein kinase 9 (Homo sapiens)        -1

Please let me know the test result on file for C=CCN(/C=C1/C(=O)O[C@H](COC)[C@@]2(C)C1=C(O)C(=O)C1=C2[C@H](OC(C)=O)C[C@]2(C)C(=O)CC[C@@H]12)CC=C [SONOLISIB] .
-1

Please let me know the test result on file for CCc1nc(C(N)=O)c(Nc2ccc(N3CCC(N4CCN(C)CC4)CC3)c(OC)c2)nc1NC1CCOCC1 [GILTERITINIB] .
1

Please let me know the test result on file for O=C(NC[C@H](O)CO)c1ccncc1Nc1ccc(I)cc1F [PIMASERTIB] .
-1

Please let me know the test result on file for Cc1c(Cn2c(C)nc3c(C(=O)O)cc(N4CCOCC4)cc32)cccc1C(F)(F)F [GSK-2636771] .
-1

Please let me know the test result on file for S=C(NCc1ccc2c(c1)OCO2)N1CCN(c2ncnc3c2oc2ccccc23)CC1 [AMUVATINIB] .
-1

Please let me know the test result on file for Cc1c(NC(=O)OC[C@@H]2COCCN2)cn2ncnc(Nc3ccc4c(cnn4Cc4cccc(F)c4)c3)c12 [AC-480] .
-1

----------
biological target: Serine/threonine-protein kinase 24 (Homo sapiens, UniProt Q9Y6E0); further: in the data inactive means no Kd found up to 30 µM
Sequence (Q9Y6E0 whole entry): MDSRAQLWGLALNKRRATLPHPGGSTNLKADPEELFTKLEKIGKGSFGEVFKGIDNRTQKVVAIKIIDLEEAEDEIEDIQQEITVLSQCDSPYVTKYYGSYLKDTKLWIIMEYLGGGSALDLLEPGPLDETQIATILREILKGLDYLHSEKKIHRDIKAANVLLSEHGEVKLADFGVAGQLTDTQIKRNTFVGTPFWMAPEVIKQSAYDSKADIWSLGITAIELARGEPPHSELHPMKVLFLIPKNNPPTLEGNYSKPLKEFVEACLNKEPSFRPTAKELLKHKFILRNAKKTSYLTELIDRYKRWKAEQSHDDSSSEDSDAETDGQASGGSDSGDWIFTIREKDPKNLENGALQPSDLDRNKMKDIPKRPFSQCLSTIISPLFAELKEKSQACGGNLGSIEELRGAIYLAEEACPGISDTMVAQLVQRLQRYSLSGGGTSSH
Activity calls are given as the source filed them.
Just give me one of these, please: active, inactive

                               smiles_input  category
0  NC(=O)c1ccc(N(C(N)=O)c2c(F)cccc2F)nc1-c1ccc(F)cc1F  inactive
1  Cn1cc(-c2[nH]c3cc(NC(=O)[C@H](N)C4CCCCC4)cc4c3c2C=NNC4=O)cn1  inactive
2  C=CCN(/C=C1/C(=O)O[C@H](COC)[C@@]2(C)C1=C(O)C(=O)C1=C2[C@H](OC(C)=O)C[C@]2(C)C(=O)CC[C@@H]12)CC=C  inactive

Please let me know the test result on file for "Cn1c(=O)c(F)c(Nc2ccc(I)cc2F)c2c(=O)n(C[C@@H](O)CO)cnc21" .
inactive

Please let me know the test result on file for "CC1(COc2ccc3c(c2)ncn3-c2ccc3cccc(N4CCC(N)CC4)c3n2)COC1" .
active

Please let me know the test result on file for "O=C(NOC[C@H](O)CO)c1ccc(F)c(F)c1Nc1ccc(I)cc1F" .
inactive

Please let me know the test result on file for "O=C(O)c1ccc2c(c1)nc(Nc1cccc(Cl)c1)c1ccncc12" .
inactive
